Origin of the recorded values: patent US20070092518A1

tgt: T1, human tumor necrosis factor-α (rHuTNF-alpha, Biosource) (human, UniProt P01375 77-233)
T1 construct: Bought recombinant protein coated on ELISA plates; The TNFα of the Biacore assay is not described further; also called TNFα; human TNFα
assay: solid-phase ELISA, Fab lysate on coated rHuTNF-alpha
reported endpoint: binding result

SEQ ID NO 72 (Fab, V domains shown, Fab, E. coli lysate) VH: EVQLTESGGGLVQPGGSLRLSCRASGSIFSNHYMNWVRQAPGKGLEWIGEIRSKSIYSATHYAESVKGRFIISRDGNGTSLYLEMNSLKTEDTAEYYCAQNYYGSTYDYWGQGTLVTVS VL: EIVLTQSPDFQSVTPKEKVTITCRASQFVGSSIHWYQQKPDQSPKLLIKYASESMSGVPSRFSGSGSGTDFTFTISSLEAEDAATYYCQQSHSWPFTFGPGTKVDIK = binds
SEQ ID NO 93 (Fab, V domains shown, Fab, E. coli lysate) VH: EVQLTESGGGLVQPGGSLRLSCRASGFTFSNHYMNWVRQAPGKGLEWIGEIRSKSSYGATHYAESVKGRFIISRDDNGTDLYLEMNSLKTEDTAEYYCAQNYYGSTPDYWGQGTLVTVS VL: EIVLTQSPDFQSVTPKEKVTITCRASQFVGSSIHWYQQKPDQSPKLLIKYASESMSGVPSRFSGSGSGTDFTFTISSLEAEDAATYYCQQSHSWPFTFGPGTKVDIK = binds
SEQ ID NO 75 (Fab, V domains shown, Fab, E. coli lysate) VH: EVQLVESGGGLVQPGGSLRLSCRASGFTFSNHWMNWVRQAPGKGLEWIGEIRSKSIYSATHYAESVKGRFIISRDDNKNSLTLEMNSLKTEDTAEYYCARNYYGSTPDYWGQGTLVTVS VL: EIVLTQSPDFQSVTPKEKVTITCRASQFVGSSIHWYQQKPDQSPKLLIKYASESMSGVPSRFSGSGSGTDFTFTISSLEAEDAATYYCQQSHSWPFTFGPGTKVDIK = binds
